binding signal by entry:
assayed_system: TDP-43 (Homo sapiens, UniProt Q13148 1-414)
Sequence (Q13148 whole entry): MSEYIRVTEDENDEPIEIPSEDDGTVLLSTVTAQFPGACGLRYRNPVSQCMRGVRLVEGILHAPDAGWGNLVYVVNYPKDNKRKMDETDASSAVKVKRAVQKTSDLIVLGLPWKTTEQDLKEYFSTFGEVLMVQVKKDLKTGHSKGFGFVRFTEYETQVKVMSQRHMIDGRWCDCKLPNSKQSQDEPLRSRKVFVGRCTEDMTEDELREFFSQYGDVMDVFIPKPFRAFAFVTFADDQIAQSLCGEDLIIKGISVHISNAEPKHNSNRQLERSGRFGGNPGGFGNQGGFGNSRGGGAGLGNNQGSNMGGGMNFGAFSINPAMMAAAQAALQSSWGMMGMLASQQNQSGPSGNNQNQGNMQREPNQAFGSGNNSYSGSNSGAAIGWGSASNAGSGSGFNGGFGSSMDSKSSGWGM
assay_overview: RNA Bind-n-Seq with designed 260-mer pool; 25 mM Tris-HCl, 150 mM KCl, 3 mM MgCl2, BSA (printed 500 mg/mL), 20 units/mL SUPERase IN; pH not stated; 500 nM RNA pool, 1 h, 4 C; TDP-43 5, 50, 500 nM; high values mean tight binding
condition_summary: protein: recombinant; tags: SBP (GST cleaved off with PreScission; pGEX-GST-SBP)
In all, about 9,900 sequences were measured (“r (bound/input frequency ratio)”: median about 0.7, highest 2% from about 6.5 on). The sample holds the highest values, similar sequences and a random draw of the others, so the mix is not that of the screen.

binder	binding signal
ENSMUSG00000029636.224|Wasf3|112:116;205:212 (ssRNA) RNA: GGGAGUUCUACAGUCCGACGAUCGCUUCGAUAUCCGCAUGCUAUUGCAGAGGGACCAGGACACUGCCUUCCCUUAGGUGCAUUAUUUACGUGGCCUGCAGCUCUUAAUAUCUCUCACUGUUUAUGAAAAGAAAGAUUCAGAUCCGGGGUGACAUACACACAGUUGACAGGGAAUGCCUGUGGGAUAAUUAAAAAUGGUUUUUGCUCAUGAGUUUGGGAUGUCACCCAGCCGCCCACAUCGCCUGCUAACACACACGACGCCUGUCCGCUUGGCCAGCUAUCCUGUAACACCUGCCAGUAGUAGCUCUUGCGGUCGCACUAGUGUGGAAUUCUCGGGUGUCAAGG	1.64 R (bound/input frequency ratio)
ENSMUSG00000043670.206|Diras1 (ssRNA) RNA: GGGAGUUCUACAGUCCGACGAUCGCUUCGAUAUCCGCAUGCUAGAUGAGGGUGACUUAGAAUUCUGUGUUUAUGUGCCUGUGUGUGUGGAUGGGUGUGUGUCUGUCUUGGGAUGGGGUGUUCUUGCACCACUUUGUGUUCUUAGUGAGACCACAGUGUAAGUGGCCGUGUGUGUGUGUGGGGGGGGGCACCUAGACAUUGUGGUGUGUCUGUAUGGCUCUGUGUUUUCAGGGGUGGGUGACACAGGCCUGUCUGAUGAGCACCAGGUCUGUUCCAGGCUGUGGCAAGCUGGCUCCUGGCUCAGCUCUUGCGGUCGCACUAGUGUGGAAUUCUCGGGUGUCAAGG	6.69 R (bound/input frequency ratio)
ENSMUSG00000061578.1390|Ksr2|74:78;177:181 (ssRNA) RNA: GGGAGUUCUACAGUCCGACGAUCGCUUCGAUAUCCGCAUGCUACUUUGUAAAUGAUUCUGUUGCCUUUUUCUAAACACAAAGUAUAUAUACCUAUAAAUGCUAUAUAUAUUAUAUAACACAAUAUACAUAAAGACUACUUCUUGUACAGCCCUCCACGGACCUCAGGCCCACUGUUUUCUCCAUGUCUGUCUGUACUGACUGUUGCAGAAUGAGCUGAUCAUACAUCUUGAUUCUCCAUUUUCCUUCUGGACCACAUGUCUCUUCCUUUUCCUUUUUAGAUCUGUCUUGCUCUCUGUCUCUCUCUCUUGCGGUCGCACUAGUGUGGAAUUCUCGGGUGUCAAGG	0.257 R (bound/input frequency ratio)
ENSMUSG00000031028.392|Tub (ssRNA) RNA: GGGAGUUCUACAGUCCGACGAUCGCUUCGAUAUCCGCAUGCUAAGCUCCUGGUGAUAAUGCCUUUUCUUGACCACUGGCGCUGUGAACACAGGCUAAUGGACUUCAGAUACCAGGGCCCCGGGAUCACCUGGGUUAGCCUCUCCCACAGGAAGAUCCCUUACCCCUCAUCCCCUCUUCUUUUUGGUCCUUGGCUGGGUAGCAAAUUGGUGAGAAGAGCAGCCUAGUCUGUAAGAGUGCAGGGCAGCUGGAACCUUAGGCAGCUCCUCUGUAUGCUACCGGCUCCACACCCUAACACUCUCCACCUCUUGCGGUCGCACUAGUGUGGAAUUCUCGGGUGUCAAGG	0.459 R (bound/input frequency ratio)
ENSMUSG00000043670.201|Diras1 (ssRNA) RNA: GGGAGUUCUACAGUCCGACGAUCGCUUCGAUAUCCGCAUGCUAUGAGUGGCUCCUGGGCCUGUGUCCCACCCAGAUGAGGGUGACUUAGAAUUCUGUGUUUAUGUGCCUGUGUGUGUGGAUGGGUGUGUGUCUGUCUUGGGAUGGGGUGUUCUUGCACCACUUUGUGUUCUUAGUGAGACCACAGUGUAAGUGGCCGUGUGUGUGUGUGGGGGGGGGCACCUAGACAUUGUGGUGUGUCUGUAUGGCUCUGUGUUUUCAGGGGUGGGUGACACAGGCCUGUCUGAUGAGCACCAGGUCUGUUCCUCUUGCGGUCGCACUAGUGUGGAAUUCUCGGGUGUCAAGG	4.7 R (bound/input frequency ratio)
ENSMUSG00000035202.98|Lars2 (ssRNA) RNA: GGGAGUUCUACAGUCCGACGAUCGCUUCGAUAUCCGCAUGCUAUCCUGCUCAGUACGAGAGGAACCGCAGCUAGCUUGUGUCUCCAGUGUCUUUUACCAUCACAGGCCCUGGCUCUGUGCUACCUCCCUAGAAUACCUGUGGUUCAUCACCUUCAGCUCACACUCCAUUCAGACAAUGCUCACUUAGGCCUACAAGCAAGGGAGAGGCUUAAGCACAAGGUCUUUAAGCUUGAUACUGUGCCUGGUCUCAAUGCCUAGAAAUUCCAACUUAACUGUCGCUAUCAUAAAGGAUUUUAAAUUUUUCUCUUGCGGUCGCACUAGUGUGGAAUUCUCGGGUGUCAAGG	0.339 R (bound/input frequency ratio)

q: Reported binding signal, binder ENSMUSG00000043670.204|Diras1 (ssRNA) RNA: GGGAGUUCUACAGUCCGACGAUCGCUUCGAUAUCCGCAUGCUAGUGUCCCACCCAGAUGAGGGUGACUUAGAAUUCUGUGUUUAUGUGCCUGUGUGUGUGGAUGGGUGUGUGUCUGUCUUGGGAUGGGGUGUUCUUGCACCACUUUGUGUUCUUAGUGAGACCACAGUGUAAGUGGCCGUGUGUGUGUGUGGGGGGGGGCACCUAGACAUUGUGGUGUGUCUGUAUGGCUCUGUGUUUUCAGGGGUGGGUGACACAGGCCUGUCUGAUGAGCACCAGGUCUGUUCCAGGCUGUGGCAAGCUGGCUCUUGCGGUCGCACUAGUGUGGAAUUCUCGGGUGUCAAGG : ____
a: 6.58 R (bound/input frequency ratio)
